# experiment-description: molar heat capacity at constant pressure
# condition-parameters: 40 K; 101.33 kPa; Crystal
measured-metric: molar heat capacity at constant pressure (J/K/mol)
I only need the number, in J/K/mol, no unit after it.

Example molecules with recorded molar heat capacity at constant pressure:
// fetch molar heat capacity at constant pressure given entry CCCCCCCCCCCCC(=O)OC [methyl tridecanoate]
65.69

Look up and state reported molar heat capacity at constant pressure for CCCCCCCCCCCCCCCC(=O)OC [methyl hexadecanoate]
75.87

// Input: CCCCCCCCCC(=O)OC [methyl decanoate] . Output its molar heat capacity at constant pressure only.
57.28

Answer with reported molar heat capacity at constant pressure of CCCCCCCCCCCCCCC(=O)OC [methyl pentadecanoate]
71.36

Give recorded molar heat capacity at constant pressure. CCCCCCCCCCCC(=O)OC [methyl dodecanoate]
63.08

---
Specify reported molar heat capacity at constant pressure for the molecule shown: CCCCCCCCCCC(=O)OC [methyl undecanoate]
59.59

Supply reported molar heat capacity at constant pressure belonging to this molecule: CCCCCCCCCCCCCC(=O)OC [methyl tetradecanoate]
69.2

Read off the recorded molar heat capacity at constant pressure for CCCCCCCCCCCCCCCCCC(=O)OC [methyl octadecanoate]
82.6

Report molar heat capacity at constant pressure, nothing else, for this molecule: CCCCCCCC(=O)OC [methyl octanoate]
50.53

Indicate its recorded molar heat capacity at constant pressure; the molecule in question is CCCCCCCCC(=O)OC [methyl nonanoate]
53.39

Consider the molecule CCCCCCCCCCCCCCCCC(=O)OC [methyl heptadecanoate] . State its measured molar heat capacity at constant pressure.
77.97

Consider the molecule CCCCCCCCCCCCCCCCCCC(=O)OC [methyl nonadecanoate] and give its recorded molar heat capacity at constant pressure.
87.37

Give the measured molar heat capacity at constant pressure for CCCCCCCCCCCCCCCCCCCC(=O)OC [methyl eicosanoate]
89.89

Recorded values, source the NIST ThermoML archive (doi:10.1021/je0499364).
